# TEST: Cytotoxicity (CC50) in HFF cells in the herpes virus tests
# CONDITION LABEL: human
// values below are reported CC50 at 14 days
MEASURED ENDPOINT: CC50 at 14 days (µg/mL)

>>> reported_measurement("O=C1CC(c2ccc(O)cc2)Oc2cc(O)c(-c3c(O)cc(O)c4c3OC(c3ccc(O)cc3)CC4=O)c(O)c21 (stereo not shown)")
13.7
>>> reported_measurement("O=C1CC(c2ccc(O)cc2)Oc2cc(O)c(-c3c(O)cc4c(c3O)C(=O)CC(c3ccc(O)cc3)O4)c(O)c21 (stereo not shown)")
55.5

---

# TEST: in vitro
# CONDITION LABEL: human, HSV-2 CPE Inhibition CC50
MEASURED ENDPOINT: CC50 at 3 days (µg/mL)

>>> reported_measurement("O=c1cc(-c2ccc(Oc3c(O)cc4oc(-c5ccc(O)cc5)cc(=O)c4c3O)cc2)oc2cc(O)cc(O)c12")
77.5
